Item-by-item account of HeLa-ACE2 uninfected cytotoxicity Sinf Average
tested on: HeLa-ACE2 cells; test: Uninfected HeLa-ACE2 24 h live/dead cytotoxicity counter screen; assay type: cell-based, human; settings: curve plateau at infinite concentration
Where a name gives a salt, the structure may show the parent alone.
Please state the figure in %; there is no need to write the unit.

The following compounds have reported results that may help.
# return recorded HeLa-ACE2 uninfected cytotoxicity Sinf Average for input COc1ccc2cc1Oc1ccc(cc1)C[C@H]1c3cc(c(OC)cc3CCN1C)Oc1c(OC)c(OC)cc3c1[C@H](C2)N(C)CC3 [Hanfangchin A]
-99

# return recorded HeLa-ACE2 uninfected cytotoxicity Sinf Average for input CN1CCN(c2ccc(C(=O)NCc3cnc(C#N)nc3NCC(C)(C)C)cc2)CC1 [Dutacatib]
-100

# return recorded HeLa-ACE2 uninfected cytotoxicity Sinf Average for input OCCN1CCN(CC/C=C2/c3ccccc3Sc3ccc(Cl)cc32)CC1 [Zuclopenthixol]
-100

# return recorded HeLa-ACE2 uninfected cytotoxicity Sinf Average for input O=c1nc(NO)ccn1[C@@H]1O[C@H](CO)[C@@H](O)[C@H]1O [N-hydroxycytidine]
-100

# return recorded HeLa-ACE2 uninfected cytotoxicity Sinf Average for input CCC(CC)COC(=O)[C@H](C)N[P@](=O)(OC[C@H]1O[C@@](C#N)(c2ccc3c(N)ncnn23)[C@H](O)[C@@H]1O)Oc1ccccc1 [Remdesivir]
-86

Next:
# return recorded HeLa-ACE2 uninfected cytotoxicity Sinf Average for input Cc1c(O)cccc1C(=O)N[C@@H](CSc1ccccc1)[C@H](O)CN1C[C@H]2CCCC[C@H]2C[C@H]1C(=O)NC(C)(C)C [Nelfinavir mesylate]
-100

# return recorded HeLa-ACE2 uninfected cytotoxicity Sinf Average for input C=CC(=O)Nc1cc(Nc2nccc(-c3cn(C)c4ccccc34)n2)c(OC)cc1N(C)CCN(C)C [AZD-9291/Osimertinib]
-100

# return recorded HeLa-ACE2 uninfected cytotoxicity Sinf Average for input CCN(CC)CCCC(C)Nc1ccnc2cc(Cl)ccc12 (centres unmarked) [Chloroquine, DualTPharma, Chloroquine]
-100

# return recorded HeLa-ACE2 uninfected cytotoxicity Sinf Average for input CN1CC2c3ccccc3Oc3ccc(Cl)cc3C2C1 (centres unmarked) [Asenapine maleate]
-100

# return recorded HeLa-ACE2 uninfected cytotoxicity Sinf Average for input C[C@H]1O[C@@H](O[C@H]2[C@@H](O)C[C@H](O[C@H]3[C@@H](O)C[C@H](O[C@H]4CC[C@@]5(C)[C@H](CC[C@@H]6[C@@H]5C[C@@H](O)[C@]5(C)[C@@H](C7=CC(=O)OC7)CC[C@]65O)C4)O[C@@H]3C)O[C@@H]2C)C[C@H](O)[C@@H]1O [Digoxin]
-98

* * *

tested on: Calu-3 cells; details: human
assay readout: Calu-3 uninfected cytotoxicity Sinf Average

# return recorded Calu-3 uninfected cytotoxicity Sinf Average for input C[C@]12O[C@H](C[C@]1(O)CO)n1c3ccccc3c3c4c(c5c6ccccc6n2c5c31)CNC4=O
-98%

Next:
# return recorded Calu-3 uninfected cytotoxicity Sinf Average for input CCc1ccc(C2=CC(C)(C)Sc3ccc(C#Cc4ccc(C(=O)O)cc4)cc32)cc1
-100%

# return recorded Calu-3 uninfected cytotoxicity Sinf Average for input C[C@@H]1C[C@@H]([C@H](O)CC2CC(=O)NC(=O)C2)C(=O)[C@@H](C)C1 [Cycloheximide]
-39%

# return recorded Calu-3 uninfected cytotoxicity Sinf Average for input COc1cc(-n2cnc3cc(-c4ccc(Cl)cc4)sc3c2=O)ccc1OCCN1CCCC1
-116%

# return recorded Calu-3 uninfected cytotoxicity Sinf Average for input CC[C@H]1CN2CCc3cc(OC)c(OC)cc3[C@@H]2C[C@@H]1C[C@H]1NCCc2cc(OC)c(OC)cc21
-47%

# return recorded Calu-3 uninfected cytotoxicity Sinf Average for input COc1cc(C[C@H]2c3cc(OC)c(OC)cc3CCN2C)c(Oc2cc3c(cc2OC)-c2c(OC)c(OC)cc4c2[C@H](C3)N(C)CC4)cc1OC
-92%

# return recorded Calu-3 uninfected cytotoxicity Sinf Average for input C[C@H]1O[C@@H](O[C@H]2[C@@H](O)C[C@H](O[C@H]3[C@@H](O)C[C@H](O[C@H]4CC[C@@]5(C)[C@H](CC[C@@H]6[C@@H]5C[C@@H](O)[C@]5(C)[C@@H](C7=CC(=O)OC7)CC[C@]65O)C4)O[C@@H]3C)O[C@@H]2C)C[C@H](O)[C@@H]1O
-38%
